Hello, the source for this data is ChEMBL document CHEMBL1156609, in case you need it.

- Species: Homo sapiens
- test.protocol: Binding affinity to human c-myc G-quadruplex Pu18 DNA assessed as change melting temperature at 2.0 uM by FRET melting assay
As shown below, each of these compounds has a reported ΔTm value.
property.measured: ΔTm (°C)

{"columns": ["smiles.text", "endpoint.result"],
 "data": [
  ["COc1ccc2cc3[n+](cc2c1NCCCN1CCCC1)CCc1cc2c(cc1-3)OCO2", 25],
  ["COc1ccc2cc3[n+](cc2c1NCCCN1CCCCC1)CCc1cc2c(cc1-3)OCO2", 24],
  ["COc1ccc2cc3[n+](cc2c1NCCCN1CCOCC1)CCc1cc2c(cc1-3)OCO2", 17],
  ["COc1ccc2cc3[n+](cc2c1NCCCN(C)C)CCc1cc2c(cc1-3)OCO2", 20],
  ["COc1ccc2cc3[n+](cc2c1NCCO)CCc1cc2c(cc1-3)OCO2", 12],
  ["COc1ccc2cc3[n+](cc2c1NCCc1ccccc1)CCc1cc2c(cc1-3)OCO2", 20],
  ["COc1ccc2cc3[n+](cc2c1NCCCCCCN)CCc1cc2c(cc1-3)OCO2", 29],
  ["COc1ccc2cc3[n+](cc2c1NCCN(C)C)CCc1cc2c(cc1-3)OCO2", 19],
  ["COc1ccc2cc3[n+](cc2c1NCCN1CCOCC1)CCc1cc2c(cc1-3)OCO2", 18],
  ["COc1ccc2cc3[n+](cc2c1NCCN1CCCCC1)CCc1cc2c(cc1-3)OCO2", 20],
  ["COc1ccc2cc3[n+](cc2c1OC)CCc1cc2c(cc1-3)OCO2", 1]
]}

###

As shown below, each of these molecules has a reported ΔTm value.
- Species: Homo sapiens
- test.protocol: Binding affinity to duplex F10T DNA assessed as change melting temperature at 2.0 uM by FRET melting assay
property.measured: ΔTm (°C)

{"columns": ["smiles.text", "property.measured", "endpoint.result"],
 "data": [
  ["COc1ccc2cc3[n+](cc2c1NCCCN1CCCCC1)CCc1cc2c(cc1-3)OCO2", "ΔTm", 1],
  ["COc1ccc2cc3[n+](cc2c1OC)CCc1cc2c(cc1-3)OCO2", "ΔTm", 2],
  ["COc1ccc2cc3[n+](cc2c1NCCCN(C)C)CCc1cc2c(cc1-3)OCO2", "ΔTm", 1],
  ["COc1ccc2cc3[n+](cc2c1NCCCCCCN)CCc1cc2c(cc1-3)OCO2", "ΔTm", 2],
  ["COc1ccc2cc3[n+](cc2c1NCCCN1CCOCC1)CCc1cc2c(cc1-3)OCO2", "ΔTm", 0],
  ["COc1ccc2cc3[n+](cc2c1NCCN1CCOCC1)CCc1cc2c(cc1-3)OCO2", "ΔTm", 1],
  ["COc1ccc2cc3[n+](cc2c1NCCN1CCCCC1)CCc1cc2c(cc1-3)OCO2", "ΔTm", 0],
  ["COc1ccc2cc3[n+](cc2c1NCCc1ccccc1)CCc1cc2c(cc1-3)OCO2", "ΔTm", 1],
  ["COc1ccc2cc3[n+](cc2c1NCCCN1CCCC1)CCc1cc2c(cc1-3)OCO2", "ΔTm", 2],
  ["COc1ccc2cc3[n+](cc2c1NCCO)CCc1cc2c(cc1-3)OCO2", "ΔTm", 0],
  ["COc1ccc2cc3[n+](cc2c1NCCN(C)C)CCc1cc2c(cc1-3)OCO2", "ΔTm", 0]
]}

###

As shown below, each of these compounds has a reported Tm value.
- test.protocol: Binding affinity to duplex F10T DNA assessed as melting temperature at 2.0 uM by FRET melting assay

{"columns": ["smiles.text", "units", "Tm"],
 "data": [
  ["COc1ccc2cc3[n+](cc2c1NCCCCCCN)CCc1cc2c(cc1-3)OCO2", "°C", 60],
  ["COc1ccc2cc3[n+](cc2c1NCCCN(C)C)CCc1cc2c(cc1-3)OCO2", "°C", 59],
  ["COc1ccc2cc3[n+](cc2c1NCCc1ccccc1)CCc1cc2c(cc1-3)OCO2", "°C", 59],
  ["COc1ccc2cc3[n+](cc2c1NCCO)CCc1cc2c(cc1-3)OCO2", "°C", 58],
  ["COc1ccc2cc3[n+](cc2c1NCCCN1CCCC1)CCc1cc2c(cc1-3)OCO2", "°C", 60],
  ["COc1ccc2cc3[n+](cc2c1NCCN1CCOCC1)CCc1cc2c(cc1-3)OCO2", "°C", 59],
  ["COc1ccc2cc3[n+](cc2c1NCCCN1CCCCC1)CCc1cc2c(cc1-3)OCO2", "°C", 59],
  ["COc1ccc2cc3[n+](cc2c1NCCN(C)C)CCc1cc2c(cc1-3)OCO2", "°C", 58],
  ["COc1ccc2cc3[n+](cc2c1NCCCN1CCOCC1)CCc1cc2c(cc1-3)OCO2", "°C", 58],
  ["COc1ccc2cc3[n+](cc2c1NCCN1CCCCC1)CCc1cc2c(cc1-3)OCO2", "°C", 58]
]}

###

- Species on record: Homo sapiens
- test.protocol: Binding affinity to human c-myc G-quadruplex Pu18 DNA assessed as melting temperature at 2.0 uM by FRET melting assay
Please respond with TRUE when measured Tm is strictly beneath 70 °C, and with FALSE in all other cases.

{"columns": ["smiles.text", "assigned.class"],
 "data": [
  ["COc1ccc2cc3[n+](cc2c1NCCc1ccccc1)CCc1cc2c(cc1-3)OCO2", "FALSE"],
  ["COc1ccc2cc3[n+](cc2c1NCCN1CCCCC1)CCc1cc2c(cc1-3)OCO2", "FALSE"],
  ["COc1ccc2cc3[n+](cc2c1NCCCN(C)C)CCc1cc2c(cc1-3)OCO2", "FALSE"],
  ["COc1ccc2cc3[n+](cc2c1OC)CCc1cc2c(cc1-3)OCO2", "TRUE"],
  ["COc1ccc2cc3[n+](cc2c1NCCCN1CCCCC1)CCc1cc2c(cc1-3)OCO2", "FALSE"],
  ["COc1ccc2cc3[n+](cc2c1NCCO)CCc1cc2c(cc1-3)OCO2", "TRUE"],
  ["COc1ccc2cc3[n+](cc2c1NCCCCCCN)CCc1cc2c(cc1-3)OCO2", "FALSE"],
  ["COc1ccc2cc3[n+](cc2c1NCCN(C)C)CCc1cc2c(cc1-3)OCO2", "FALSE"],
  ["COc1ccc2cc3[n+](cc2c1NCCCN1CCCC1)CCc1cc2c(cc1-3)OCO2", "FALSE"]
]}
